Task for the reader: assign each of the following compounds its reported Inhibition level.
- TARGET_ENTITY: kinases of Table 5 (Homo sapiens, UniProt P11362)
- Sequence (P11362 22-822): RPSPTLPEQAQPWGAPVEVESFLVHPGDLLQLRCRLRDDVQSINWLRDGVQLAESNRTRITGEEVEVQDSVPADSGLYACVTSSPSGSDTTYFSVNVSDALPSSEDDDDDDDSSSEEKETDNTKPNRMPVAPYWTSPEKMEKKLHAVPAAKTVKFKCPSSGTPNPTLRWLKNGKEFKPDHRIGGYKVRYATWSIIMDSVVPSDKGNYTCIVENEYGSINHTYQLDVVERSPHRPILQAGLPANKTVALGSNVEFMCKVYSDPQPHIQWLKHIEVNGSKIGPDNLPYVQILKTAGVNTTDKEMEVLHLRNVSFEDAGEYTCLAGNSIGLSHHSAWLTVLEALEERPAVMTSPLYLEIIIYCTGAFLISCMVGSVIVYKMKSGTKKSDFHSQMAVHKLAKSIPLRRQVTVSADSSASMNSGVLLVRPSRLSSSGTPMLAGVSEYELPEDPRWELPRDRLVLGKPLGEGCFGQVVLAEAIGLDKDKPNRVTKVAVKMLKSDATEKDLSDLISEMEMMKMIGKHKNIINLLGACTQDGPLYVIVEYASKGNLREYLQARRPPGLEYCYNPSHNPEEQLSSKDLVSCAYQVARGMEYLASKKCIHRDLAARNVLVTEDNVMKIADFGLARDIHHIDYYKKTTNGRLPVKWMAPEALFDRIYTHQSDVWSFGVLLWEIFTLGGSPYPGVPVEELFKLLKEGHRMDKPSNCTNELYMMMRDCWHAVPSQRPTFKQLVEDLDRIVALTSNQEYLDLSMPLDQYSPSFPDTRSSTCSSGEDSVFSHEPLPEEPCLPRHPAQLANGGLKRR
- METHOD_SUMMARY: Further analysis of a plurality of inhibitors and a plurality of kinases (Table 5 inhibition results)
- Type: biochemical
- Set-up: scale not given here
- CONDITION_SUMMARY: kinase FGFR1; inhibitor 100 uM
Would you mind answering with just the numeric figure?

Query string: Could you share which Inhibition level value was measured for `CC(C)(C)n1nc(-c2ccc(Cl)cc2)c2c(N)ncnc21` ?
Result string: 2

Query string: Could you share which Inhibition level value was measured for `Cn1cc(C2=C(c3cn(CCCSC(=N)N)c4ccccc34)C(=O)NC2=O)c2ccccc21` ?
Result string: 2

Query string: Could you share which Inhibition level value was measured for `O=c1c(-c2ccc(O)cc2)coc2cc(O)cc(O)c12` ?
Result string: 0

Query string: Could you share which Inhibition level value was measured for `N#C/C(=C/c1ccc(O)c(O)c1)C(=O)NCc1ccccc1` ?
Result string: 0

Query string: Could you share which Inhibition level value was measured for `COc1cc2ncnc(Nc3cccc(Cl)c3)c2cc1OC` ?
Result string: 1
